Target: HPV35 E6 phospho-PBM peptide p35E6 (human papillomavirus type 35)
Test: FP
Measured Kd by item
measured quantity: Kd

| binder | recorded result |
| --- | --- |
| full-length human 14-3-3τ fused to the C terminus of MBP (natural protein) MEKTELIQKAKLAEQAERYDDMATCMKAVTEQGAELSNEERNLLSVAYKNVVGGRRSAWRVISSIEQKTDTSDKKLQLIKDYREKVESELRSICTTVLELLDKYLIANATNPESKVFYLKMKGDYFRYLAEVACGDDRKQTIDNSQGAYQEAFDISKKEMQPTHPIRLGLALNFSVFYYEILNNPELACTLAKTAFDEAIAELDTLNEDSYKDSTLIMQLLRDNLTLWTSDSAGEECDAAEGAEN | 233 µM |
| full-length human 14-3-3ζ fused to the C terminus of MBP (natural protein) MDKNELVQKAKLAEQAERYDDMAACMKSVTEQGAELSNEERNLLSVAYKNVVGARRSSWRVVSSIEQKTEGAEKKQQMAREYREKIETELRDICNDVLSLLEKFLIPNASQAESKVFYLKMKGDYYRYLAEVAAGDDKKGIVDQSQQAYQEAFEISKKEMQPTHPIRLGLALNFSVFYYEILNSPEKACSLAKTAFDEAIAELDTLSEESYKDSTLIMQLLRDNLTLWTSDTQGDEAEAGEGGEN | 191 µM |
| full-length human 14-3-3η fused to the C terminus of MBP (natural protein) MGDREQLLQRARLAEQAERYDDMASAMKAVTELNEPLSNEDRNLLSVAYKNVVGARRSSWRVISSIEQKTMADGNEKKLEKVKAYREKIEKELETVCNDVLSLLDKFLIKNCNDFQYESKVFYLKMKGDYYRYLAEVASGEKKNSVVEASEAAYKEAFEISKEQMQPTHPIRLGLALNFSVFYYEIQNAPEQACLLAKQAFDDAIAELDTLNEDSYKDSTLIMQLLRDNLTLWTSDQQDEEAGEGN | 163 µM |
| full-length human 14-3-3γ fused to the C terminus of MBP (natural protein) MVDREQLVQKARLAEQAERYDDMAAAMKNVTELNEPLSNEERNLLSVAYKNVVGARRSSWRVISSIEQKTSADGNEKKIEMVRAYREKIEKELEAVCQDVLSLLDNYLIKNCSETQYESKVFYLKMKGDYYRYLAEVATGEKRATVVESSEKAYSEAHEISKEHMQPTHPIRLGLALNYSVFYYEIQNAPEQACHLAKTAFDDAIAELDTLNEDSYKDSTLIMQLLRDNLTLWTSDQQDDDGGEGNN | 125 µM |
